pIC50: −log10 of the molar value.
Compiled notes: published pIC50 values involving Tyrosine-protein kinase JAK2 (Homo sapiens).

> print(dat)
                                   molecule        result
1  CC1CCNC(=O)c2ccc(c(N)c2)-c2ccnc(n2)Nc2ccc(OCC3CCCCC3)c(c2)COC1 (stereo not shown)  5.00 to 6.00
2  C[C@@H](O)c1nc2cnc3ccsc3c2n1[C@H]1CC[C@H](NCC(F)(F)F)CC1        ≥ 5.70
3  CCC(=O)c1cnc(Nc2ccc([C@H](C)N3CC[C@H](O)C3)cn2)cc1Nc1cccc(-c2ncn(C)n2)c1OC        ≤ 6.30
4  N#Cc1cc(-c2ncnc(Nc3ccc(N4CCN(C5COC5)CC4)cc3)n2)ccc1N1CCCC1          6.47
5  Cn1cc(C(O)C(=O)N2CC[C@H](Oc3ccc(-c4ncnc(Nc5ccc(N6CCN(C7COC7)CC6)cc5)n4)cc3C#N)[C@H](F)C2)cn1 (stereo partly shown)          6.57
6  O=C1NCCCCOCc2cc(ccc2OC2CCCC2)Nc2nccc(n2)-c2ccc1cc2[N+](=O)[O-]        < 5.00

Consider now this further molecule.
Exam item: Fill in: pIC50 of N#CCC(C1CC1)n1cc(-c2ccnc(Nc3ccc(C(=O)N4CC[C@@H](C#N)C4)cc3)n2)cn1 (mixture of isomers) is ___
Marked response: > 7.00

---

The entries that follow carry pIC50 values tested on UniProt:O60674, drawn from several published reports.
pIC50: −log10 of the molar value.

# annotated cases, reported pIC50 shown
> print(dat)
                           molecular.string  observable  result
1  COc1cc2cc(c1OCCN1CCCC1)COC/C=C/COCc1cccc(c1)-c1ccnc(n1)N2       pIC50  ≥ 6.00
2  CC(C)(C#N)C1CCN(n2cnc3cnc4[nH]ccc4c32)CC1       pIC50    8.12
3  Cc1cccc(NC(=O)c2ccc(C)c(-c3ccc4c(c3)[nH]c3ncncc34)c2)c1       pIC50  ≥ 6.30

Alright, here's another compound for you.
Exam item: Which pIC50 value belongs to Nc1cc2ccc1-c1ccnc(n1)Nc1ccc(N3CCOCC3)c(c1)COCCCCCCNC2=O ?
Marked response: 6.00 to 7.00

---

This section presents IC50 values reported for Tyrosine-protein kinase JAK2 (Homo sapiens) in the literature.

These recorded examples may help you get a feel for the data.
> print(dat)
                                   compound  observable          result
1  N#Cc1cc(-c2ncnc(Nc3ccc(N4CCN(C5COC5)CC4)cc3)n2)ccc1OC1CCN(C(=O)C2(O)CC2)CC1        IC50          918 nM
2  CN1CCC(Nc2nc(Nc3ccc(OC4CCCCC4)cc3)c3c(=O)[nH]cc(Br)c3n2)CC1        IC50  101 to 1000 nM
3  N#CCC(C1CCCC1)n1cc(-c2ncnc3[nH]ccc23)c(NC(=O)CN2CCOCC2)n1 (stereo not shown)        IC50         < 20 nM
4  CCS(=O)(=O)N1CC(CC#N)(n2cc(-c3ccnc(Nc4ccc(C(=O)N5CCN(C(C)=O)CC5)cc4)n3)cn2)C1        IC50        < 100 nM
5  Cn1cc(Nc2nc(-c3cnn(C4(CC#N)CCOCC4)c3)c3sccc3n2)cn1        IC50         < 50 nM

Exam item: IC50 lookup needed for CCC(=O)c1cnc(Nc2ccc(CN3CCN(C)CC3)nn2)cc1Nc1cccc(-c2ncn(C)n2)c1OC , thanks.
Marked response: 50 to 500 nM

Exam item: Also N#CCC1(n2cc(-c3c(F)cnc4[nH]ccc34)cn2)CN(C2CCN(C(=O)c3cnc(C(F)(F)F)cn3)CC2)C1 ?
Marked response: 10 to 50 nM

---

pIC50 values for Tyrosine-protein kinase JAK2 (Homo sapiens, UniProt O60674) compiled from several publications are listed below.
pIC50: −log10 of the molar value.

# annotated cases, reported pIC50 shown
> print(dat)
                                   compound                         system.under.test  observable        result
1  Nc1cc2ccc1-c1ccnc(n1)Nc1ccc(Oc3ccccc3)c(c1)COCCCCNC2=O  Tyrosine-protein kinase JAK2 (Homo sapiens, UniProt O60674)       pIC50  5.00 to 6.00
2  CCC(CC)n1cc(-c2nc(-c3cnn(CCN4CCOCC4)c3)cn3nccc23)cn1  Tyrosine-protein kinase JAK2 (Homo sapiens, UniProt O60674)       pIC50  7.00 to 8.00
3  N#CCC1(n2ccc(-c3ncnc4[nH]ccc34)c2)CN(C2CCN(C(=O)c3c(F)cccc3F)CC2)C1  Tyrosine-protein kinase JAK2 (Homo sapiens, UniProt O60674)       pIC50        ≥ 8.00

Exam item: Endpoint output: pIC50 of COC(=O)Nc1cccc(Nc2nccc(-c3cnn(C(CC#N)C4CCCC4)c3)n2)c1 (racemic) . Value?
Marked response: > 7.00

Exam item: Another compound to look at: Cn1ccc(S(=O)(=O)N2CCC(CC(CC#N)n3cc(-c4ccnc(Nc5ccc(C(N)=O)cc5)n4)cn3)CC2)n1 (racemic)
Marked response: > 7.00

Exam item: Query COc1cc(Nc2ncnc(-c3ccc(O[C@H]4CCN(C(=O)[C@H](C)O)C[C@H]4F)c(C#N)c3)n2)cnc1N1CCN(C2COC2)CC1 next
Marked response: ≤ 6.00

Exam item: Likewise for C[C@H]1CN(C2COC2)CCN1c1ccc(Nc2ncnc(-c3ccc(O[C@H]4CCN(C(=O)[C@@H]5CCC(=O)N5)C[C@H]4F)c(C#N)c3)n2)cc1 ?
Marked response: ≤ 6.00

Exam item: Lookup C[C@H](NC(=O)c1ccc(-c2ccnc(Nc3ccc(N4CCOCC4)cc3)n2)cc1)C(F)(F)F
Marked response: 9.13

Exam item: And then CNC(=O)c1cnc2[nH]ccc2c1NN1CCC[C@H](C(=O)NCC(F)F)C1 , what is it?
Marked response: 6.86

Exam item: Continue with N#CCC(C1CCN(C(=O)c2ccccc2)CC1)n1cc(-c2ccnc(Nc3ccc(N4CCOCC4)cc3)n2)cn1 (racemic)
Marked response: > 7.00

Exam item: Another: N#Cc1cc(-c2ncnc(Nc3ccc(N4CCN(C5COC5)CC4)cc3)n2)ccc1OCCNC(N)=O
Marked response: ≤ 6.00

Exam item: Continue with Cc1ccc(NC(=O)c2ccc(C(F)(F)F)s2)cc1N1CCc2nc(Nc3ccc(OCCN4CCCC4)cc3)ncc2C1
Marked response: 7.74

Exam item: Proceed to CC(C)(O)Cc1cnc2cc(Nc3ncc(Cl)c(NC4CCN(c5ccc(C#N)cn5)CC4)n3)ccn12
Marked response: 7.64

Exam item: Query Cc1ccc(SC[C@H](O)CNc2cc[nH]c(=O)c2-c2nc3cc4c(cc3[nH]2)C(=O)N(C2CCN(C)CC2)C4=O)c(C)c1 next
Marked response: 5.30 to 6.30

---

Reported IC50 against Tyrosine-protein kinase JAK2 (Homo sapiens, UniProt O60674), gathered from multiple publications, appears below.

> print(dat)
                           molecular.string                         system.under.test  observable          result
1  C[C@H](O)C[C@@H](C1CC1)n1cc(-c2nc(-c3cnn(C)c3)cc3nccn23)cn1  Tyrosine-protein kinase JAK2 (Homo sapiens, UniProt O60674)        IC50  100 to 1000 nM
2  O=c1[nH]c2cnc(-c3cnn4ccncc34)nc2n1C1CCC(F)(F)CC1  Tyrosine-protein kinase JAK2 (Homo sapiens, UniProt O60674)        IC50        < 100 nM
3  CCn1c(C(=O)N(C2CC2)C2CC2)cc2c3c(ncn3C)c(Nc3cnn(C)c3)nc21  Tyrosine-protein kinase JAK2 (Homo sapiens, UniProt O60674)        IC50        0.695 nM

--- query ---
Exam item: Which measured IC50 value corresponds to CCC(=O)c1cnc(Nc2ccc([C@H](C)N(C)C)cn2)cc1Nc1cccc(-c2ncn(C)n2)c1OC ?
Marked response: ≥ 500 nM

---

pIC50: −log10 of the molar value.
Dear all, I have gathered published pIC50 values for Tyrosine-protein kinase JAK2 (Homo sapiens); the list follows.

> print(dat)
                                   compound                         system.under.test  observable        result
1  C[C@@H]1CCOCc2cc(ccc2OC2CCCC2)Nc2nccc(n2)-c2ccc(cc2N)C(=O)NC1  Tyrosine-protein kinase JAK2 (Homo sapiens)       pIC50  6.00 to 7.00

Exam item: Report pIC50 for CCCCC1(n2cc(-c3nc(-c4cnn(C)c4)cc4nccn34)cn2)CN(S(=O)(=O)C(F)(F)F)C1 please.
Marked response: 6.00 to 7.00

Exam item: Continue with CN(C)CCc1ncccc1OC[C@H](O)CNc1ccnc(O)c1-c1nc2cc3c(cc2[nH]1)C(=O)N(C1CCN(C)CC1)C3=O
Marked response: 5.30 to 6.30

Exam item: And then N#CCC(C1CC1)n1cc(-c2nc(-c3cnn(CC(F)(F)F)c3)cc3nccn23)cn1 (stereo not shown) , what is it?
Marked response: 7.00 to 8.00
